system: Sialic acid-binding Ig-like lectin 9 (Homo sapiens) (UniProt Q9Y336)
Sequence (Q9Y336 whole entry): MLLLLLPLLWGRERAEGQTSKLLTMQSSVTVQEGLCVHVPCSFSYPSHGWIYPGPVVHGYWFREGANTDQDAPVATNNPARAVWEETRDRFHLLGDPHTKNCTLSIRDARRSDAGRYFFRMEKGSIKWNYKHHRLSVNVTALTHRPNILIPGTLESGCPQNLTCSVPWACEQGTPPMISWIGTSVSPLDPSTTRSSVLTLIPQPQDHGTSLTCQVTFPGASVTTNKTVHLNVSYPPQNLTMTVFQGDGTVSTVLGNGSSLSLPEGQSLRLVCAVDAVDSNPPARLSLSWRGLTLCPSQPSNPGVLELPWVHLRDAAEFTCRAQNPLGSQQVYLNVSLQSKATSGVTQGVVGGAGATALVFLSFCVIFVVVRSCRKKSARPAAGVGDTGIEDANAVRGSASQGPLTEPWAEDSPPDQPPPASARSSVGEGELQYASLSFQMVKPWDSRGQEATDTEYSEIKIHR
methodSummary: Hs-Siglec9 ALPHAscreen SOP 20170721
Parameters: scale not given: direction of the effect not stated beside the values
studyConditions: 10 µM
Kindly supply the reported Percent Effect values for the records listed here.
One number for each entry, in %.

Use these answered entries as a reference point.
# lookup: CCNC(=O)c1ccc2c(c1)nc1n2CCN(Cc2ccco2)C1 on Sialic acid-binding Ig-like lectin 9 (Homo sapiens) (UniProt Q9Y336), Percent Effect = 1.2

Record for Cc1ccc(-c2ncc(C(=O)NCCNC(=O)C(C)C)s2)c(C)c1 under target or system Sialic acid-binding Ig-like lectin 9 (Homo sapiens) (UniProt Q9Y336): Percent Effect reported as -1.89

Tested on Sialic acid-binding Ig-like lectin 9 (Homo sapiens) (UniProt Q9Y336): CC(=O)Nc1nc(CN2CCOC(Cn3cc(C)cn3)C2)cs1 (configuration not stated) . Observed Percent Effect: -6.5

So the reported Percent Effect for Cc1ccc(CNCc2nnc3n2CC(C(F)(F)F)CC3)cc1 (configuration not stated) , on Sialic acid-binding Ig-like lectin 9 (Homo sapiens) (UniProt Q9Y336), turned out to be 4.4

The molecule CC(C)CCNC(=O)c1sccc1N(C)S(=O)(=O)c1ccccc1 on Sialic acid-binding Ig-like lectin 9 (Homo sapiens) (UniProt Q9Y336): Percent Effect was -18.2

Record for Cc1ccc2nc(C3CCN(CCO)CC3)nn2c1 under target or system Sialic acid-binding Ig-like lectin 9 (Homo sapiens) (UniProt Q9Y336): Percent Effect reported as 9.27

Record COc1ccc(-c2nc(CN3CCN(CCO)CC3)co2)cc1 has Sialic acid-binding Ig-like lectin 9 (Homo sapiens) (UniProt Q9Y336) Percent Effect equal to -1.67

Record CCS(=O)(=O)c1ccccc1N1CCC(NC(=O)NC2CCCC2)CC1 has Sialic acid-binding Ig-like lectin 9 (Homo sapiens) (UniProt Q9Y336) Percent Effect equal to 8.77

Please give Percent Effect for each item listed below.
1. Cc1ccc(CNC(=O)CN2CCN(CC(O)c3ccco3)CC2)cc1 (configuration not stated)
2. CCc1cc(NCc2ccccc2CN2CCCC2)n2ncnc2n1
3. c1cnc2c(c1)cc([C@H]1CCCO1)n2CCN1CCCCC1

## Result
[-0.747, -9.79, -7.44]

// assay Sialic acid-binding Ig-like lectin 9 (Homo sapiens) (UniProt Q9Y336), entry CC(=O)N1CCC(c2ccnc(Nc3cncnc3)n2)C1 (configuration not stated) , Percent Effect value = -1.51

###

system: Protein translocase subunit SecA (Escherichia coli (strain K12)) (UniProt P10408)
Sequence (P10408 whole entry): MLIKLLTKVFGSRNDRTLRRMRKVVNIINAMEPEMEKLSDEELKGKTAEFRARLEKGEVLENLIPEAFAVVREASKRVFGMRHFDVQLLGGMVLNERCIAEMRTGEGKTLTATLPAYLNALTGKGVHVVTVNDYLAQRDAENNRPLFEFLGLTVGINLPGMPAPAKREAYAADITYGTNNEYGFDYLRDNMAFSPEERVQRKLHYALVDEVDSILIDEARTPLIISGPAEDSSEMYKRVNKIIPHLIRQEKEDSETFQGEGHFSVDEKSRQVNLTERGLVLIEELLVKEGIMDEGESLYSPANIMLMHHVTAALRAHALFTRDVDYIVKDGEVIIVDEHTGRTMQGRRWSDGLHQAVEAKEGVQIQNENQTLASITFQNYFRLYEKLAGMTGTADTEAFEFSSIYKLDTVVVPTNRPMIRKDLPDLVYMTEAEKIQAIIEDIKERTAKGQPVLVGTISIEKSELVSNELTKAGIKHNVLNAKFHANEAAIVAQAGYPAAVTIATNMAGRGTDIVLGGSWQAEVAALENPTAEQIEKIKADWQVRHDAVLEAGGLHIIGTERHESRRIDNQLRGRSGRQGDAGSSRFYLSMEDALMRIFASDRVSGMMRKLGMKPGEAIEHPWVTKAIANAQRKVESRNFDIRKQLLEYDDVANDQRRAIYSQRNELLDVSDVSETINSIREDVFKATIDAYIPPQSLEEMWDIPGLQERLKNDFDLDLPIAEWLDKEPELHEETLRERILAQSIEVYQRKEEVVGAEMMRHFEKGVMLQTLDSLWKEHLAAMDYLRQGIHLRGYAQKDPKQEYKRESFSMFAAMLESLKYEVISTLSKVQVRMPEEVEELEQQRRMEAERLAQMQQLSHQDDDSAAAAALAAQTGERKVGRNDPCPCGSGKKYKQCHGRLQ
methodSummary: Assay to Identify E. coli SecA ATPase Inhibitors
Type: functional
Parameters: scale not given: direction of the effect not stated beside the values
studyConditions: 30 µM
Potency and affinity values are given separately.
metricName: Percent Effect (%)
Numbers only, in %.

So, CN(C)CCn1c(=O)oc2ccc(NC(=O)CC(C)(C)C)cc21 ? Its Percent Effect was -5.92

The compound identified as O=C(Cc1ccc2c(c1)OCO2)N1CCN(c2cnccn2)CC1 registered its Percent Effect at -1.75

Consider O=C(Cc1ccc2c(c1)OCCO2)N1CCCC(n2ccnc2)C1 (stereo unspecified) . Its measured Percent Effect is -8.71

The reported Percent Effect of the compound Cc1cc(N2CCN(Cc3ccc(-c4cc[nH]n4)o3)CC2)cc(C)n1 was -5.81

Measured Percent Effect of Cc1csc(NC(=O)CN2CCC(c3ccnn3CCO)CC2)n1 : -4.67

Please look at the items below and tell me Percent Effect for each one, in order.
1. CCN1CCC(CNC(=O)NCc2cc(-c3ccc(C)cc3)no2)C1 (stereo unspecified)
2. CCc1ccc(C(=O)O)cc1S(=O)(=O)Nc1ccc(F)c(C#N)c1
3. FC(F)(F)COCCN1CCN(c2ccc3nncn3n2)CC1
4. CCSCCC(=O)Nc1ncn(Cc2cccnc2)n1
5. CN(C)C(=O)NC[C@H]1OC[C@@H]2CCN(Cc3ccoc3)C[C@@H]21
6. CCN(C(=O)CCCOc1ccccc1F)c1ccncc1

## Result
1. 0.151
2. -2.04
3. -4.65
4. -2.86
5. 2.83
6. -5.32
